STUDY SYSTEM: T1, human MSLN on OVCAR3 tumor cells (human, UniProt Q13421 296-598)
T1 construct: whole, on cells; also called human MSLN protein
T1 sequence (Q13421 other isoform, or with tags, fused parts or gaps): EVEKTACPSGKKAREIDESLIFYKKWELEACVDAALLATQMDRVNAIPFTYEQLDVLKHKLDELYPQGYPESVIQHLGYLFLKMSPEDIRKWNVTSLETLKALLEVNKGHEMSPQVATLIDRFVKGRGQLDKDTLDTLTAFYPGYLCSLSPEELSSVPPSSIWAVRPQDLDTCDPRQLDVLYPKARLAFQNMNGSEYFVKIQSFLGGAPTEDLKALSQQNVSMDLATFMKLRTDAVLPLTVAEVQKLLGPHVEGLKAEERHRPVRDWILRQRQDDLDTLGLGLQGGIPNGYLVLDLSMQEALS
PROTOCOL: FACS, OVCAR3 cells
Measured EC50, listed per entry.
MEASURED ENDPOINT: EC50 (nM)

>>> observed_result("F7.44.20-H16 (scFv, not shown: small tags and cut ends, also called S009-F7.44.20 humanized antibody VH2a + VL4) scFv: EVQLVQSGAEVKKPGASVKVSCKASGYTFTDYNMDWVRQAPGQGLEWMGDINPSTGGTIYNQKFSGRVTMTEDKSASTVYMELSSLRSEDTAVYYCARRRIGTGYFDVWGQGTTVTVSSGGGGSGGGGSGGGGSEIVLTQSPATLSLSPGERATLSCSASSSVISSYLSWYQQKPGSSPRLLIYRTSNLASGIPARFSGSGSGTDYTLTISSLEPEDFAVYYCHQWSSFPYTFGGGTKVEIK")
1.66
>>> observed_result("F7.44.20-H4 (scFv, not shown: small tags and cut ends, also called S009-F7.44.20 humanized antibody VH1 + VL4) scFv: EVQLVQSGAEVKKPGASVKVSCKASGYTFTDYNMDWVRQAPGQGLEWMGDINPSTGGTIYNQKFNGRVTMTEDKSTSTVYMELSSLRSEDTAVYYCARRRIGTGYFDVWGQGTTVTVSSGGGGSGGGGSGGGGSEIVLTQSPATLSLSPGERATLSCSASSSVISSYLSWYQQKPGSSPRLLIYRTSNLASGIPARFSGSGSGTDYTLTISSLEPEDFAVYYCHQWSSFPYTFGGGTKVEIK")
1.26
